molecular target: human GHS-R 1a (Homo sapiens); assay: GHS-R 1a receptor-ligand binding assay (membrane preparations from transfected LLC PK-1 cells); settings: displacement of 125I-His9-ghrelin; plasma membranes of LLC PK-1 cells transiently transfected with human GHS-R 1a; mean of at least two independent experiments in triplicates
Sequence (Q92847 whole entry): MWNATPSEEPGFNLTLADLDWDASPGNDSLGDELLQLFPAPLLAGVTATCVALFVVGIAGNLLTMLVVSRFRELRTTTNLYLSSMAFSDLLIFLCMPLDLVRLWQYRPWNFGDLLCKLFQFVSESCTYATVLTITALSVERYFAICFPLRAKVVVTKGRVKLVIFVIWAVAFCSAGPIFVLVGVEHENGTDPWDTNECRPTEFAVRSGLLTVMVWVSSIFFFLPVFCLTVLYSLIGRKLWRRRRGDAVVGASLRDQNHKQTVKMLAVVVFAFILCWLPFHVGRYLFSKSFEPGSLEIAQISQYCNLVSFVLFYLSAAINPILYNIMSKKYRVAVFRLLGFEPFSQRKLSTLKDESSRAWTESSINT
IC50 reference
Reply numerically in nM, unit not repeated.

Enquiry: Would you kindly share the measured IC50 for COc1ccc(Cn2c(CCc3ccccc3)nnc2[C@@H](Cc2cccc3ccccc23)NC(=O)C2CCNCC2)cc1 ?
Return: 2.2

Enquiry: Would you kindly share the measured IC50 for O=C(N[C@H](Cc1c[nH]c2ccccc12)c1nnc(CCc2ccccc2)n1CCc1ccccc1)c1ccccc1 ?
Return: 535

Enquiry: Would you kindly share the measured IC50 for O=C(N[C@H](Cc1c[nH]c2ccccc12)c1nnc(CCc2ccccc2)n1Cc1ccc(-c2ccccc2)cc1)C1CCNCC1 ?
Return: 95

Enquiry: Would you kindly share the measured IC50 for O=C(N[C@H](Cc1c[nH]c2ccccc12)c1nnc(CCc2ccccc2)n1CCc1ccccc1)c1ccccn1 ?
Return: 198

Enquiry: Would you kindly share the measured IC50 for O=C(N[C@H](Cc1c[nH]c2ccccc12)c1nnc(CCCc2c[nH]c3ccccc23)n1Cc1ccccc1)C1CCOCC1 ?
Return: 370

Enquiry: Would you kindly share the measured IC50 for CC(C)(N)C(=O)N[C@H](Cc1c[nH]c2ccccc12)c1nnc(CCc2ccccc2)n1Cc1ccc(-c2ccccc2)cc1 ?
Return: 150

Enquiry: Would you kindly share the measured IC50 for COc1ccc(Cn2c(CCc3ccccc3)nnc2[C@@H](Cc2cccc3ccccc23)NC(=O)C2CCCN2)cc1 (stereo partly shown) ?
Return: 18.8

src = patent US20090239877A1
